target: AfiL; construct: native, purified from sponge tissue (ammonium sulfate, Sepharose 4B, lactose elution); 70 kDa disulfide-linked dimer, ~30 kDa subunits; internal stretch […]; assay: isothermal titration calorimetry; conditions: TBS (20 mM Tris-HCl pH 7.6, 150 mM NaCl), 25 °C; one-set-of-sites model
propertyLabel: Kd (µM)
Express the result in µM but write the number alone.

Entry OC[C@H]1O[C@@H](O[C@H]2[C@H](O)[C@@H](O)C(O)O[C@@H]2CO)[C@H](O)[C@@H](O)[C@H]1O (stereo partly drawn) [D-lactose] — recorded Kd = 10.2
